- measurement.conditions: rat, in vivo, iv, 10 mg/kg
Where no end group is shown, it is not given here.
recorded.metric: Tmax (min)
Report the figure in min without appending any unit label.

Which Tmax value belongs to MAVLGDTAWDFGSVGGALNSLGKGIHQIFGAAF [Z2] ?
15

----------
- measurement.conditions: rat, in vivo, iv, 10 mg/kg
Where no end group is shown, it is not given here.
recorded.metric: AUC(0-inf) (µg·h/mL)
Just the number please, in µg·h/mL, no unit attached.

Recorded AUC(0-inf) of MAVLGDTAWDFGSVGGALNSLGKGIHQIFGAAF [Z2] , please.
0.557

----------
- measurement.conditions: rat, in vivo, iv, 10 mg/kg
Where no end group is shown, it is not given here.
recorded.metric: AUC(0-t) (ng·h/mL)
Number only, in ng·h/mL; omit the unit.

May I ask what AUC(0-t) has been recorded for MAVLGDTAWDFGSVGGALNSLGKGIHQIFGAAF [Z2] ?
548
